biological target: Angiotensin-converting enzyme (Homo sapiens); assay: Binding affinity to ACE (unknown origin)
Residues, ends and D or L forms follow the SMILES beside them.
Reported Endpoint: IC50 (µM)
Give the value, in units of µM, as a plain number.

**Query** So what's the measured IC50 for this one? CC(C)C[C@H](N)C(=O)N[C@@H](C)C(=O)N1CCC[C@H]1C(=O)N[C@@H](Cc1ccc(O)cc1)C(=O)N[C@@H](Cc1c[nH]c2ccccc12)C(=O)O (H-LAPYW-OH)
**Result** 5.42

---

Assign IC50 to each entry below.
molecular target: Angiotensin-converting enzyme (Homo sapiens); assay: Inhibition of ACE (unknown origin) preincubated with compound for 5 mins and measured after 60 mins
Residues, ends and D or L forms follow the SMILES beside them.
Answer by giving the amount and then stating its unit.

**Query** So what's the measured IC50 for this one? CC(C)[C@H](NC(=O)[C@H](CCCCN)NC(=O)[C@H](C)NC(=O)[C@@H](N)CCCCN)C(=O)O (H-KAKV-OH)
**Result** 2920 µM

**Query** So what's the measured IC50 for this one? N=C(N)NCCC[C@H](NC(=O)[C@@H]1CCCN1C(=O)[C@H](CC(N)=O)NC(=O)CN)C(=O)O (H-GNPR-OH)
**Result** 3050 µM

**Query** So what's the measured IC50 for this one? NCC(=O)N[C@@H](CCC(=O)O)C(=O)N1CCC[C@H]1C(=O)N[C@@H](Cc1ccccc1)C(=O)O (H-GEPF-OH)
**Result** 36.1 µM

**Query** So what's the measured IC50 for this one? CC(C)C[C@H](NC(=O)CNC(=O)[C@H](CCC(=O)O)NC(=O)[C@@H]1CCCN1C(=O)[C@@H](N)C(C)C)C(=O)N[C@@H](CC(N)=O)C(=O)N[C@@H](CO)C(=O)N[C@@H](Cc1c[nH]c2ccccc12)C(=O)N1CCC[C@H]1C(=O)N[C@@H](Cc1ccccc1)C(=O)O (H-VPEGLNSWPF-OH)
**Result** 73.3 µM

**Query** So what's the measured IC50 for this one? C[C@H](NC(=O)[C@H](CCCCN)NC(=O)[C@H](C)NC(=O)[C@@H](N)CCCCN)C(=O)O (H-KAKA-OH)
**Result** 667 µM

**Query** So what's the measured IC50 for this one? CC[C@H](C)[C@H](NC(=O)[C@H](CCCCN)NC(=O)[C@H](C)NC(=O)[C@@H](N)CCCCN)C(=O)O (H-KAKI-OH)
**Result** 6890 µM

---

target: UniProtKB P12821; test: Inhibition of ACE (unknown origin) preincubated with compound for 5 mins and measured after 60 mins
pIC50: −log10 of the molar value. Residues, ends and D or L forms follow the SMILES beside them.
Param threshold (5) applies to pIC50; output Fulfilled when value >= threshold, Not fulfilled when value < threshold.

**Query** # check: pIC50 of CSCC[C@H](NC(=O)[C@H](CCCCN)NC(=O)[C@H](C)NC(=O)[C@@H](N)CCCCN)C(=O)O (H-KAKM-OH) is greater than or equal to 5
**Result** Not fulfilled

**Query** # check: pIC50 of C[C@H](NC(=O)[C@@H](N)CCCCN)C(=O)N[C@@H](CCCCN)C(=O)O (H-Lys-Ala-Lys-OH) is greater than or equal to 5
**Result** Not fulfilled

**Query** # check: pIC50 of C[C@H](NC(=O)[C@@H](N)CCCCN)C(=O)N[C@@H](CCCCN)C(=O)N[C@@H](Cc1c[nH]c2ccccc12)C(=O)O (H-KAKW-OH) is greater than or equal to 5
**Result** Fulfilled

**Query** # check: pIC50 of C[C@H](NC(=O)[C@@H](N)CCCCN)C(=O)N1CCC[C@H]1C(=O)N[C@@H](CCCCN)C(=O)O (H-KAPK-OH) is greater than or equal to 5
**Result** Not fulfilled

**Query** # check: pIC50 of CC(C)C[C@H](NC(=O)[C@H](CCCCN)NC(=O)[C@H](C)NC(=O)[C@@H](N)CCCCN)C(=O)O (H-KAKL-OH) is greater than or equal to 5
**Result** Not fulfilled

---

Assign Kd to each entry below.
Residues, ends and D or L forms follow the SMILES beside them.
Give the value, in units of nM, as a plain number.

**Query** Look up Kd with Angiotensin-converting enzyme (Homo sapiens, UniProt P12821) for this compound: C[C@H](NC(=O)[C@@H](N)CCCCN)C(=O)N[C@@H](CCCCN)C(=O)N[C@@H](Cc1c[nH]c2ccccc12)C(=O)O (H-KAKW-OH)
Sequence (P12821 whole entry): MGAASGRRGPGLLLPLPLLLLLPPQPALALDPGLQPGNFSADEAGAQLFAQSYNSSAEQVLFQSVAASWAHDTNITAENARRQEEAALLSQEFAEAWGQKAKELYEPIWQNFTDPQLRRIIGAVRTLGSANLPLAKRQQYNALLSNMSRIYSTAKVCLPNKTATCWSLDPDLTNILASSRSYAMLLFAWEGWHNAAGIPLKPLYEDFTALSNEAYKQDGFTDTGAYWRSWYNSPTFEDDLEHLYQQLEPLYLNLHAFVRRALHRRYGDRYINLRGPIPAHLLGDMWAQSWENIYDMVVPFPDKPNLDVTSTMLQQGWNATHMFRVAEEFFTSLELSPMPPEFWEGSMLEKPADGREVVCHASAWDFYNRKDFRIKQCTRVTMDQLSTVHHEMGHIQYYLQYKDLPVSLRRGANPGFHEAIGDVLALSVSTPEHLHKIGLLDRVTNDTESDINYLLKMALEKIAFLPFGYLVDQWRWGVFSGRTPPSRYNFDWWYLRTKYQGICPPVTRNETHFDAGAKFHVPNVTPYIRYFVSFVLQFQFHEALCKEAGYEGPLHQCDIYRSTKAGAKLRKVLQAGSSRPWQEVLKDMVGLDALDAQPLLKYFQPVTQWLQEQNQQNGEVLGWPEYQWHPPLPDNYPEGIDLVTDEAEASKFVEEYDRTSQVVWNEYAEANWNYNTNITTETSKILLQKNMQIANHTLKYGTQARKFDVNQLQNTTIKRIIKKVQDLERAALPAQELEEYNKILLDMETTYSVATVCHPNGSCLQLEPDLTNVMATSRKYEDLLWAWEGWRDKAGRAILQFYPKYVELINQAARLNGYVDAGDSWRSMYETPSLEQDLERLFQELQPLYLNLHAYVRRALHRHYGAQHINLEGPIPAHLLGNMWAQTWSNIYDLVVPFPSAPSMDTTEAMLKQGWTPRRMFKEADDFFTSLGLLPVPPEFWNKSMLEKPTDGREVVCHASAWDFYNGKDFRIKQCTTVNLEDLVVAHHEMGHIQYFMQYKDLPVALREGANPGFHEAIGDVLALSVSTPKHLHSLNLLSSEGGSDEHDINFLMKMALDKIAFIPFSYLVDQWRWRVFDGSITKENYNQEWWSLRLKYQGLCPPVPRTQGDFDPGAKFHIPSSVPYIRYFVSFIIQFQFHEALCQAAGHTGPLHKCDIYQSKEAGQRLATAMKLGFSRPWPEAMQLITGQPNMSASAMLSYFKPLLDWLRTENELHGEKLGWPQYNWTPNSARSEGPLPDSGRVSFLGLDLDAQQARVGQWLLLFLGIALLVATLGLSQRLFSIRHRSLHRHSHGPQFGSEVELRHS
**Result** 57.7

**Query** Look up Kd with Angiotensin-converting enzyme (Homo sapiens, UniProt P12821) for this compound: C[C@H](NC(=O)[C@@H](N)CCCCN)C(=O)N[C@@H](CCCCN)C(=O)N1CCC[C@H]1C(=O)O (H-KAKP-OH)
**Result** 141

---

target: Angiotensin-converting enzyme (Homo sapiens); test: Inhibition of ACE (unknown origin)
Residues, ends and D or L forms follow the SMILES beside them.
Assign IC50 to each entry below.
Give the value, in units of µM, as a plain number.

**Query** So what's the measured IC50 for this one? CC(C)C[C@H](NC(=O)[C@H](Cc1c[nH]c2ccccc12)NC(=O)[C@H](CCCCN)NC(=O)[C@H](Cc1ccccc1)NC(=O)[C@@H]1CCCN1C(=O)[C@H](CC(N)=O)NC(=O)[C@@H](NC(=O)[C@@H](NC(=O)[C@@H](N)C(C)C)[C@@H](C)O)C(C)C)C(=O)N1CCC[C@H]1C(=O)O (H-VTVNPFKWLP-OH)
**Result** 5.5

**Query** So what's the measured IC50 for this one? CC(C)C[C@H](NC(=O)[C@H](Cc1c[nH]c2ccccc12)NC(=O)[C@@H](N)CCCCN)C(=O)N1CCC[C@H]1C(=O)O (H-KWLP-OH)
**Result** 5
